These entries and their values trace back to ChEMBL document CHEMBL3885881.

# Species on record: Rattus norvegicus
# assay-details: DrugMatrix - Regimen: Daily Repeat
# Format: toxicity, organism-based, Sprague-Dawley
# Design: regimen Daily Repeat, gender Male, age 6-8 weeks
# assay-setup: in vivo, iv, 0 mg/kg, 72 h, tissue Plasma, dose level Control, time 3 day, vehicle 100 % SALINE
Provide the reported LIPASE of each item.
The answer is to be given in u/L; state only the numeric part.

Ask: Reported LIPASE for "COC(=O)C[C@](O)(CCC(C)(C)O)C(=O)O[C@@H]1C(OC)=C[C@]23CCCN2CCc2cc4c(cc2[C@H]13)OCO4" : what is it?
Reply: 10

Ask: Reported LIPASE for "CO[C@@]12[C@H](COC(N)=O)C3=C(C(=O)C(C)=C(N)C3=O)N1C[C@@H]1N[C@@H]12" : what is it?
Reply: 9

Ask: I am curious: what LIPASE value has been reported for "CC(=O)[C@]1(O)Cc2c(O)c3c(c(O)c2[C@@H](O[C@H]2C[C@H](N)[C@H](O)[C@H](C)O2)C1)C(=O)c1ccccc1C3=O" ?
Reply: 8.83

Ask: What does the data say about its LIPASE? Entry: "Cc1c(N)nc([C@H](CC(N)=O)NC[C@H](N)C(N)=O)nc1C(=O)N[C@H](C(=O)N[C@H](C)[C@@H](O)[C@H](C)C(=O)N[C@H](C(=O)NCCc1nc(-c2nc(C(=O)NCCC[S+](C)C)cs2)cs1)[C@@H](C)O)[C@@H](O[C@@H]1O[C@@H](CO)[C@@H](O)[C@H](O)[C@@H]1O[C@H]1O[C@H](CO)[C@@H](O)[C@H](OC(N)=O)[C@@H]1O)c1c[nH]cn1.[Br-]"
Reply: 10.67

---

# Species: Rattus norvegicus
# assay-details: DrugMatrix - Regimen: Daily Repeat
# Assay type: toxicity, organism-based, Sprague-Dawley
# Design: regimen Daily Repeat, gender Male, age 6-8 weeks
# assay-setup: in vivo, po, 0 mg/kg, 120 h, tissue Blood, route oral GAVAGE, dose level Control, time 5 day, vehicle .5 % CMC
For each entry below, report its HEMOGLOBIN value.
Your answer is read as G/DL, so omit the unit and give the number.

Ask: Could you tell me which HEMOGLOBIN is on file for CN(C)CCC=C1c2ccccc2COc2ccccc21 [DOXEPIN] ?
Reply: 14.7

Ask: Endpoint output: HEMOGLOBIN of COc1cc(/C=C/C(=O)O)ccc1O [FERULATE] . Value?
Reply: 13.65

Ask: So what's the measured HEMOGLOBIN for this one? CCOc1cc(N)c(Cl)cc1C(=O)NCC1CN(Cc2ccc(F)cc2)CCO1 (centres undefined) [MOSAPRIDE]
Reply: 13.22

Ask: Param item = "CCN1C[C@]2(COC)[C@H](O)C[C@H](OC)[C@@]34[C@@H]5C[C@@]6(O)[C@H](OC(=O)c7ccccc7)[C@@H]5[C@@](OC(C)=O)([C@@H]([C@H](OC)[C@H]23)[C@@H]14)[C@@H](O)[C@@H]6OC" ; retrieve measured HEMOGLOBIN.
Reply: 14.1

Ask: I'd like to know its HEMOGLOBIN. The compound in question is NC(=O)NC(=O)Cc1ccccc1 [PHENACEMIDE]
Reply: 12.73

Ask: // returns reported HEMOGLOBIN for input CC(C)NCC(O)COc1ccc(CC(N)=O)cc1 (centres undefined)
Reply: 14.7

Ask: Please report the recorded HEMOGLOBIN for "NC(=O)CN1CCCC1=O" .
Reply: 13.63

Ask: Could you share which HEMOGLOBIN value was measured for Cl.NC[C@H]1CC[C@H](C(=O)Oc2ccc(CCC(=O)O)cc2)CC1 [CETRAXATE HYDROCHLORIDE] ?
Reply: 13.65

Ask: Quick check: HEMOGLOBIN of "Nc1ccc(C(=O)O)c(O)c1" ?
Reply: 14.82

---

# Species on record: Rattus norvegicus
# assay-details: DrugMatrix - Regimen: Daily Repeat
# Assay type: toxicity, organism-based, Sprague-Dawley
# Parameters: regimen Daily Repeat, gender Male, age 6-8 weeks
# assay-setup: in vivo, po, 0 mg/kg, 72 h, tissue Plasma, route oral GAVAGE, dose level Control, time 3 day, vehicle 100 % WATER
I'd be grateful if you could share measured CREATININE for these entries.
API: value field is a number in mg/dL; no unit string.

Ask: # CREATININE lookup, item "CN1C(=O)OC(C)(C)C1=O"
Reply: 0.92

Ask: Which measured CREATININE value corresponds to "C[N+](C)(C)CCOC(N)=O.[Cl-]" ?
Reply: 0.22

Ask: State the recorded CREATININE for this entry: "CCC1(c2ccccc2)C(=O)NC(=O)NC1=O"
Reply: 0.17

Ask: Any idea what CREATININE was measured for "CCN(CC)C(=S)SSC(=S)N(CC)CC" ?
Reply: 0.18

Ask: Data request, read-out CREATININE, for "Cc1cc(C(C)(C)C)c(O)c(C)c1CC1=NCCN1"
Reply: 0.15

Ask: CREATININE for "CC(Cl)(Cl)Cl" ?
Reply: 0.18

Ask: Report CREATININE for "Cc1cn([C@H]2C=C[C@@H](CO)O2)c(=O)[nH]c1=O" please.
Reply: 0.22

Ask: Using the record for NN [HYDRAZINE] , report its CREATININE.
Reply: 0.18

Ask: I would be grateful if you could share the reported CREATININE for "C1CCN2C[C@@H]3C[C@@H](CN4CCCC[C@@H]34)[C@H]2C1" .
Reply: 0.18

---

# Species: Rattus norvegicus
# assay-details: DrugMatrix - Regimen: Daily Repeat
# Format: toxicity, organism-based, Sprague-Dawley
# Parameters: regimen Daily Repeat, gender Male, age 6-8 weeks
# assay-setup: in vivo, po, 0 mg/kg, 72 h, tissue Plasma, route oral GAVAGE, dose level Control, time 3 day, vehicle .5 % CMC
Decide using CARBON DIOXIDE alone. Strictly below 30 mmol/L: true. Equal to or above 30 mmol/L: false.

Ask: Does the reported CARBON DIOXIDE of CC(=O)Nc1ccc2c(c1)Cc1ccccc1-2 [2-ACETYLAMINOFLUORENE] stay below 30 mmol/L?
Reply: true

Ask: Dear reviewer, please state whether COc1cc(/C=C/C(=O)O)ccc1O [FERULATE] has CARBON DIOXIDE strictly beneath 30 mmol/L.
Reply: true

Ask: Does this compound meet the criterion CARBON DIOXIDE < 30 mmol/L? CN(C)CCOC(c1ccccc1)c1ccccc1.Cn1c(=O)c2[nH]c(Cl)nc2n(C)c1=O [DIMENHYDRINATE]
Reply: true

Ask: Bench note: check whether CCN1CCCC1CNC(=O)c1cc(S(N)(=O)=O)ccc1OC (configuration not stated) [SULPIRIDE] shows CARBON DIOXIDE below 30 mmol/L
Reply: false

Ask: State whether 30 mmol/L exceeds CARBON DIOXIDE recorded for CCOc1cc(N)c(Cl)cc1C(=O)NCC1CN(Cc2ccc(F)cc2)CCO1 (configuration not stated) [MOSAPRIDE] .
Reply: true

Ask: Here's an entry: Cl.NC[C@H]1CC[C@H](C(=O)Oc2ccc(CCC(=O)O)cc2)CC1 [CETRAXATE HYDROCHLORIDE] . Is its CARBON DIOXIDE below 30 mmol/L?
Reply: true

Ask: Lab log: compare recorded CARBON DIOXIDE with 30 mmol/L; is it strictly lower for NCC(CC(=O)O)c1ccc(Cl)cc1 (configuration not stated) [BACLOFEN] ?
Reply: true

Ask: I wonder whether O=C(O)CCc1nc(-c2ccccc2)c(-c2ccccc2)o1 [OXAPROZIN] has CARBON DIOXIDE below 30 mmol/L. Can you tell?
Reply: false

---

# Organism: Rattus norvegicus
# assay-details: DrugMatrix - Regimen: Daily Repeat
# Type: toxicity, organism-based, Sprague-Dawley
# Parameters: regimen Daily Repeat, gender Male, age 6-8 weeks
# assay-setup: in vivo, po, 1500 mg/kg, 120 h, tissue Plasma, route oral GAVAGE, dose level High, time 5 day, vehicle .5 % CMC
measured-metric: CHLORIDE (MEQ/L)
Respond numerically; units are MEQ/L and should not be typed.

Ask: Return reported CHLORIDE; argument: Cc1ccc(S(=O)(=O)NC(=O)NN2CCCCCC2)cc1 [TOLAZAMIDE]
Reply: 105.33

Ask: Return reported CHLORIDE; argument: COc1ccc(Cl)cc1C(=O)NCCc1ccc(S(=O)(=O)NC(=O)NC2CCCCC2)cc1 [GLYBURIDE]
Reply: 99.67

Ask: # lookup: CHLORIDE of COc1cc(/C=C/C(=O)O)ccc1O [FERULATE]
Reply: 107

Ask: GET /values?readout=CHLORIDE&item= CC[C@H]1OC(=O)[C@H](C)[C@@H](O[C@H]2C[C@@](C)(OC)[C@@H](O)[C@H](C)O2)[C@H](C)[C@@H](O[C@@H]2O[C@H](C)C[C@H](N(C)C)[C@H]2O)[C@](C)(O)C[C@@H](C)C(=O)[C@H](C)[C@@H](O)[C@]1(C)O [ERYTHROMYCIN]
Reply: 100

Ask: Record request: CHLORIDE value, item O=C(O)CCc1nc(-c2ccccc2)c(-c2ccccc2)o1 [OXAPROZIN]
Reply: 98.67
